Values compiled from patent US10800813.

molecular target: T1, human plasma Kallikrein (human, UniProt P03952 20-638, limits assumed); assay: enzyme inhibition assay
T1 construct: also called hPK; human PK
T1 sequence (P03952 20-638 limits assumed): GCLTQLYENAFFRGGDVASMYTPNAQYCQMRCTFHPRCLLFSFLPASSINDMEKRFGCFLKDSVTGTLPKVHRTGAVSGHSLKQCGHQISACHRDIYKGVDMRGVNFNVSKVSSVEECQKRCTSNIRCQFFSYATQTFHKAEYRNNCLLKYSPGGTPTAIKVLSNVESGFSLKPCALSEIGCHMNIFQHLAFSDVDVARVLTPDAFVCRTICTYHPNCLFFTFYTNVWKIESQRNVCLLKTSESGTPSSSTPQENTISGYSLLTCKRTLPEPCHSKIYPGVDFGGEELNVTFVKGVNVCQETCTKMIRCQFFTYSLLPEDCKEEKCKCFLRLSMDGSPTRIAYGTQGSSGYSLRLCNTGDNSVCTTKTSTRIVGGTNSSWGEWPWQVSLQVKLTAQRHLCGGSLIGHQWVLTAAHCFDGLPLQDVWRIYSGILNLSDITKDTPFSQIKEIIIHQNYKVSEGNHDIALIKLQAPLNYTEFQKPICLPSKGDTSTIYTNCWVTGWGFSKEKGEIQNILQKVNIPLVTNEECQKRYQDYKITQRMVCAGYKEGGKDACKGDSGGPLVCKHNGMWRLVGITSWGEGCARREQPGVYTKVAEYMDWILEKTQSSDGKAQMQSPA
Numbered stars: 1 amine (or outer) side, 2 acyl side, 3 side chain; on linkers, the order of the positions; unused ones are H or OH. Bridge positions count the residues as written; N and C are the ends. Square brackets hold non-standard residues; d marks the D form. Phe(4-guanidino) = N=C(N)Nc1ccc(C[C@H](N)C(=O)O)cc1; TBMB = c1c(C[*:1])cc(C[*:3])cc1C[*:2]; NMeR = CN[C@@H](CCCNC(=N)N)C(=O)O; hArg = N=C(N)NCCCC[C@H](N)C(=O)O; Aze = O=C(O)[C@@H]1CCN1; Abu = CC[C@H](N)C(=O)O
Documented pKi across a set of binders
# pKi = -log10(concentration in molar units)

Below, each entry is followed by its recorded pKi result.
* Ac-CSW[Aze][Abu][hArg]CLHQDLC-NH2 (linker 1-7-13 via TBMB) [Ac-(06-34-18) Aze3 Aba4 HomoArg5] | 9.05
* Ac-CSWPARCLHQDLC-NH2 (linker 1-7-13 via TBMB; SMILES CC(=O)N[C@H]1CSCc2cc3cc(c2)CSC[C@H](NC(=O)[C@H](CCCNC(=N)N)NC(=O)[C@H](C)NC(=O)[C@@H]2CCCN2C(=O)[C@H](Cc2c[nH]c4ccccc24)NC(=O)[C@H](CO)NC1=O)C(=O)N[C@@H](CC(C)C)C(=O)N[C@@H](Cc1c[nH]cn1)C(=O)N[C@@H](CCC(N)=O)C(=O)N[C@@H](CC(=O)O)C(=O)N[C@@H](CC(C)C)C(=O)N[C@H](C(N)=O)CSC3, also called Ac-(06-34-18) wildtype; Ac-(06-34-18) WPAR) [Ac-06-34-18(TMB)-NH2] | 9.77

**Q:** Look up and state reported pKi for Ac-CSW[Aze][Abu][NMeR]CLHQDLC-NH2 (linker 1-7-13 via TBMB) [Ac-(06-34-18) Aze3 Aba4 NMeArg5]
**A:** 8.55

**Q:** Read off the recorded pKi for Ac-CSW[Aze][Abu][Phe(4-guanidino)]CLHQDLC-NH2 (linker 1-7-13 via TBMB) [Ac-(06-34-18) Aze3 Aba4 4GuanPhe5]
**A:** 9.70
